Biological target: T1, CD96 (UniProt P40200)
T1 sequence (looked up): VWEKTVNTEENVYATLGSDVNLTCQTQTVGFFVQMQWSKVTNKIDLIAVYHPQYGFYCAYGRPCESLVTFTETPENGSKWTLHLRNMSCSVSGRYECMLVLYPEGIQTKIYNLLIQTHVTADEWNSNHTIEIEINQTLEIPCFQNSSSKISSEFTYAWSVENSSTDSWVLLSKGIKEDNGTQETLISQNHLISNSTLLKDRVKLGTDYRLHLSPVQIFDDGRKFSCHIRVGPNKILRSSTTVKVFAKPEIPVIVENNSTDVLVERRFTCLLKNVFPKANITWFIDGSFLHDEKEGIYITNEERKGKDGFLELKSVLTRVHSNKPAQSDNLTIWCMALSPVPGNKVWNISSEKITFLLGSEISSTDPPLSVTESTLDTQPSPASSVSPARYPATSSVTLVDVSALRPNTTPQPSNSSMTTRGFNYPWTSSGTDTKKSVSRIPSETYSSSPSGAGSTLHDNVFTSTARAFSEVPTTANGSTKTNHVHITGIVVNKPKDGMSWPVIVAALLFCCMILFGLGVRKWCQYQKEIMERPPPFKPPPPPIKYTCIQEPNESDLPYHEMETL
Test: flow cytometry, cells
# key: entry, value: MFI

{"binder": "CD155 P18T, F91S, G111D IgV-Fc (Fc fusion, not shown: a dimerising Fc or GST; small tags and cut ends) PGTGDVVVQAPTQVTGFLGDSVTLPCYLQVPNMEVTHVSQLTWARHGESGSMAVFHQTQGPSYSESKRLEFVAARLGAELRNASLRMSGLRVEDEGNYTCLFVTFPQDSRSVDIWL", "MFI": 168000}
{"binder": "CD155 P18S, Y30C, F91S IgV-Fc (Fc fusion, not shown: a dimerising Fc or GST; small tags and cut ends) PGTGDVVVQAPTQVSGFLGDSVTLPCCLQVPNMEVTHVSQLTWARHGESGSMAVFHQTQGPSYSESKRLEFVAARLGAELRNASLRMSGLRVEDEGNYTCLFVTFPQGSRSVDIWL", "MFI": 56900}
{"binder": "CD155 P18S, F91S, L104P IgV-Fc (Fc fusion, not shown: a dimerising Fc or GST; small tags and cut ends) PGTGDVVVQAPTQVSGFLGDSVTLPCYLQVPNMEVTHVSQLTWARHGESGSMAVFHQTQGPSYSESKRLEFVAARLGAELRNASLRMSGLRVEDEGNYTCPFVTFPQGSRSVDIWL", "MFI": 10900}
{"binder": "CD155 A13E, P18S, A56V, F91S IgV-Fc (Fc fusion, not shown: a dimerising Fc or GST; small tags and cut ends) PGTGDVVVQEPTQVSGFLGDSVTLPCYLQVPNMEVTHVSQLTWARHGESGSMVVFHQTQGPSYSESKRLEFVAARLGAELRNASLRMSGLRVEDEGNYTCLFVTFPQGSRSVDIWL", "MFI": 119000}
